Target: Human M4 receptors (Homo sapiens, UniProt P08173)
Protocol: M4 PAM cAMP assay (GloSensor)
Recorded Conditions: HEK293 GloSensor cells expressing hM4; with EC20 acetylcholine and isoproterenol; geometric mean of 2-4 determinations unless otherwise indicated
pEC50: −log10 of the molar value.
Observation Type: pEC50

P: Cc1cc(C)c2c(n1)CN(C(=O)CC1CN(c3ccc(C(=O)N(C)C)cc3)C1)C2 [Example 70]
Q: Cc1c(Cl)c(OC(F)F)nc2c1CN(C(=O)CC1CN(c3cncnc3)C1)C2 [Example 32]
R: Cc1nc2c(c(C)c1C)CN(C(=O)C[C@@H]1C[C@H]1c1cccnc1)C2 (single isomer, unassigned) [Example 37]
Exam item: Order these compounds (above) by their pEC50, from the smallest value upward. I would appreciate it if you listed the labels in the requested order.
Marked response: R, P, Q
(R: 5.75, P: 6.74, Q: 7.96)

a: Cc1nc2c(c(C)c1Cl)CN(C(=O)CC1CN(c3nncs3)C1)C2 [Example 44]
b: Cc1nc2c(c(C)c1C)CN(C(=O)OC1CN(c3cccnc3)C1)C2 [Example 36]
Exam item: Min pEC50? a | b # respond with the chosen item's label
Marked response: a

* * *

Target: Human M4 receptors (Homo sapiens)
Protocol: M4 PAM cAMP assay (GloSensor)
Recorded Conditions: HEK293 GloSensor cells expressing hM4; with EC20 acetylcholine and isoproterenol; geometric mean of 2-4 determinations unless otherwise indicated
Observation Type: EC50 (nM)

Cc1cc(C(F)F)nc2c1CN(C(=O)CC1CN(c3ccnc(C(F)(F)F)c3)C1)C2 [Example 6] :: 9.75
Cc1cc(C(F)F)nc2c1CN(C(=O)CC1CN(c3cncnc3)C1)C2 [Example 34] :: 18
COCc1cc(C)c2c(n1)CN(C(=O)CC1CN(c3cccnc3)C1)C2 [Example 27] :: 16.8
COCc1nc2c(c(C)c1C)CN(C(=O)CC1CN(c3cncnc3)C1)C2 [Example 40] :: 23.6
Cc1nc2c(c(C)c1C)CN(C(=O)OC1CN(c3ncns3)C1)C2 [Example 64] :: 40.2

I: Cc1nc2c(c(C)c1C)CN(C(=O)C[C@@H]1C[C@H]1c1cccnc1)C2 (single isomer, unassigned) [Example 38]
II: Cc1cc(C)c2c(n1)CN(C(=O)CC1CN(c3ccc(C4(C)COC4)cc3)C1)C2 [Example 68]
III: Cc1c(C(F)F)nc2c(c1C)CN(C(=O)CC1CN(c3ccnc(C(F)F)c3)C1)C2 [Example 53]
IV: CCNc1nccc(N2CC(CC(=O)N3Cc4nc(C)cc(C)c4C3)C2)n1 [Example 41]
Exam item: Number of compounds to sort: 4. Sort criterion: EC50, ascending. Output spec: a listing of the labels in the requested order.
Marked response: IV, I, III, II
(IV: 7.35 nM, I: 15.9 nM, III: 38.6 nM, II: 485 nM)

* * *

Target: UniProt P08173
Sequence (P08173 1-479): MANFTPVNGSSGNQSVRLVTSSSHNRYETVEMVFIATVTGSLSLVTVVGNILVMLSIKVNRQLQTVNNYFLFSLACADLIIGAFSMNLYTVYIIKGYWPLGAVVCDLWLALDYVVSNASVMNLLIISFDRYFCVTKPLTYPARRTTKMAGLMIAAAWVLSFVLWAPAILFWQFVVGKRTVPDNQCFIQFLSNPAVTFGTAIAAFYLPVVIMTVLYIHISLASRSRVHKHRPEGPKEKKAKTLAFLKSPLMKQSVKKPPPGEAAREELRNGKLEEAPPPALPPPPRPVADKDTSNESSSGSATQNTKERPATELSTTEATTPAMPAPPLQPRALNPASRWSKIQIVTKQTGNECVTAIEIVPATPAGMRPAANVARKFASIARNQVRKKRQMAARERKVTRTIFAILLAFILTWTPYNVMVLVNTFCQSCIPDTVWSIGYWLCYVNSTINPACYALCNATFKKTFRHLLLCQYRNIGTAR
Protocol: M4 PAM cAMP assay (GloSensor)
Recorded Conditions: HEK293 GloSensor cells expressing hM4; with EC20 acetylcholine and isoproterenol; geometric mean of 2-4 determinations unless otherwise indicated
Observation Type: EC50

Reference set, count: 2
Cc1ccc([C@@H]2C[C@H]2CC(=O)N2Cc3nc(C)cc(C)c3C2)cn1 :: > 10000 nM
Cc1nc2c(c(C)c1Cl)CN(C(=O)CC1CN(c3ccncn3)C1)C2 :: < 1.39 nM

Moving on to the next molecule.
Exam item: Fetch value of EC50 on UniProt P08173 for COCc1nc2c(c(C)c1Cl)CN(C(=O)OC1CN(c3cccnc3)C1)C2 .
Marked response: 52.3 nM
